- assayed.system: T1, PUF4 RNA-binding domain (Saccharomyces cerevisiae, UniProt P25339 537-888)
- T1 sequence: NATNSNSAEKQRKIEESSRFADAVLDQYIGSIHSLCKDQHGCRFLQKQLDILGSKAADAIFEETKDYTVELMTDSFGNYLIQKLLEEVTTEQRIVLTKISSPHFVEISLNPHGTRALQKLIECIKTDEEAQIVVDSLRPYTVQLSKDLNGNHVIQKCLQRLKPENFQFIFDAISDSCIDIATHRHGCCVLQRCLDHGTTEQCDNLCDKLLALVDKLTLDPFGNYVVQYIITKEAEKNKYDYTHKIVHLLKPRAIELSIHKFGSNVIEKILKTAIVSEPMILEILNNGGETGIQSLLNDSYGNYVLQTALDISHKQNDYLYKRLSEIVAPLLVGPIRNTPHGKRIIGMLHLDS
- procedure.summary: Mg; RNA-MaP; 20 mM Na-HEPES pH 7.4, 30 mM KOAc, 0.75 mM MgCl2, 0.1% Tween-20, 5% glycerol, 0.1 mg/mL BSA, 2 mM DTT; 25 C; 0.0125-409.6 nM protein
- condition.label: tags: N-His6-TEV cleaved; C-SNAP kept, Cy3B-labelled; label: tethered on chip by stalled RNA polymerase
Listing of recorded pKd by entry.
Give only the number. pKd is defined as minus log10 of concentration in molar units.

| binder | reading |
| --- | --- |
| UCUCUUUGUACUCUACUCUCUU (ssRNA) [Ic_S1_P5E.1_K5.1_C5.1_H5.1_A5.1_[T5C]_[A7C]_F5.1_[T9A]_[A10C]_T5.1] | 8.32 |
| Ic_S4_P5E.1_K5.1_C5.1_H5.1_A5.1_[T6G]_[A7T]_F5.1_[T8G]_[T9C]_[A10C]_T5.1 (ssRNA) RNA: UUUGACAACUGAUCGUUCUUUCUUGUAUGUGCCUUCUUUCUCGAUCAGUUGUCUUU | 7.17 |
| ACAAACAUUAUAUAUAAAACAAAC (ssRNA) [Id_ii_S3_P3E.3_K3.2_C3.2_[C-2A]_H3.2_A3.1_F3.1_T3.2_[T9A]] | 6.06 |
| Id_ii_S2_P5E.4_K5.3_C5.2_[C-2A]_H5.3_A5.1_F5.1_T5.2_[T11A] (ssRNA) RNA: UUUGAUUAAUAUGAUAUCGUUCUUUCUAUACACUUAUUAAAUUCUUUCUCGAUAUCAUAUUAAUCUUU | 6.68 |
| Id_ii_S4_P5E.3_K5.2_C5.2_[C-2T]_H5.2_A5.1_F5.1_T5.2_[T11G]_[A12T] (ssRNA) RNA: UUUGACAACUGAUCGUUCUUUCUUUUAUAUUAUUAGUUUCUUUCUCGAUCAGUUGUCUUU | 6.30 |

Short answer for UCUCUUUGUAUAUUUCUAUCUCUU (ssRNA) [Ie_S1_P4E.1_K4.1_C4.1_H4.1_A4.1_[+7TTC]_F4.1_T4.1] : pKd was 8.27

Short answer for Id_ii_S2_P4E.4_K4.3_C4.2_[C-2A]_[T-1C]_H4.3_A4.1_F4.1_T4.2_[G10T]_[T11A] (ssRNA) RNA: UUUGAUUAAUAUGAUAUCGUUCUUUCUACACACUAUUAUAUUCUUUCUCGAUAUCAUAUUAAUCUUU : pKd was 6.23

Short answer for UCUCUUUUACACUAUUAGUUCUCUU (ssRNA) [Id_ii_S1_P4E.4_K4.3_C4.2_[C-2T]_H4.3_A4.1_F4.1_T4.2] : pKd was 5.86

Short answer for Ib_S4_P4E.1_K4.1_C4.1_H4.1_[A4C]_A4.1_F4.1_[A9G]_T4.1 (ssRNA) RNA: UUUGACAACUGAUCGUUCUUUCUUGUCUAUUGUUCUUUCUCGAUCAGUUGUCUUU : pKd was 6.60

Short answer for Ic_S2_P3E.1_K3.1_C3.1_H3.1_A3.1_[T5G]_[A6T]_F3.1_[T7A]_T3.1 (ssRNA) RNA: UUUGAUUAAUAUGAUAUCGUUCUUUCUUGUAGUAAUUCUUUCUCGAUAUCAUAUUAAUCUUU : pKd was 6.19

Short answer for UCUCUUUGUUCCAUUAUUAUCUCUU (ssRNA) [Ie_S1_P5E.1_K5.1_C5.1_H5.1_[+3TCC]_A5.1_F5.1_T5.1] : pKd was 7.44
